Molecular target: KLC1 TPR domain
Sequence (chain, as listed by the source): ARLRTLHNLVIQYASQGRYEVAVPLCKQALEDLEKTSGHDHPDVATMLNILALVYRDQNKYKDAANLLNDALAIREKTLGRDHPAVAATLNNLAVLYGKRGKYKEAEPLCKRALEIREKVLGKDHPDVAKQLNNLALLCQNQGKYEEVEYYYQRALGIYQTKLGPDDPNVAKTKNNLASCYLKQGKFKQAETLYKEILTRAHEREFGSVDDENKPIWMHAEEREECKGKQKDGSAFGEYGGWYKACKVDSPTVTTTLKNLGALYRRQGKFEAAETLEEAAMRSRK
Experiment: FP
READOUT NAME: pKd
// pKd is dimensionless: -log10 of concentration (M)

## Input Please indicate pKd recorded for {TAMRA}-STNLEWDDSAI-NH2 [SKIP W-acidic motif peptide]
## Output 6.08
